Measured SH2 binding enrichment by item
testTarget: SHP2-C SH2
procedureText: SH2 binding enrichment of the phosphorylated peptide, bacterial display (enrichment ratio); higher = better substrate or ligand; peptides without Tyr show the background
quantityMeasured: SH2 binding enrichment

1. QLQQAYQEAFE [YWHAZ_Y149_S145L]: 1.07
2. GHNDVYILEHV [GRIN2A_Y1423_S1425L]: 0.755
3. MKKQKYGRIIM [HSD17B4_Y143]: 1.55
4. LLLLFYVVRYC [MPZ_Y177]: 1.53
5. IGNGYYFRVFS [MYBPC3_Y1136]: 0.861
6. PTEAQYRFIFM [PTPN11_Y511_Q506P_YF]: 0.593
7. AAVLNYKAWRD [GRIN2A_Y737_G740W]: 0.915
8. METKGYHSLPE [NR3C2_Y6]: 0.475
9. EFLHKYKGFKI [SYNE1_Y6953_Q6951H_YF]: 0.998
10. DSILVYQGKEQ [USH2A_Y1909]: 0.595
11. VTSLKYSTPPY [BRIP1_Y916_S919P]: 1.31
12. LIDSSYLTRTA [GREB1L_Y1063]: 0.714
13. ERPIRYLNHQL [CEP152_Y268_Q265P]: 0.627
14. SSMIDYNTLEK [MYOC_Y479_P481T]: 0.433
15. LGQRIYQFIRS [DYRK1B_Y271_Q275R_YF]: 1.07
16. VVRSLYEDLED [VHL_Y185_I180V]: 0.981
17. CYSSEYHYVGG [CTSC_Y345_Y340C]: 0.943
18. VEDQYYCVDCY [FHL1_Y208]: 1.47
19. ESDFPYSSSFE [SRPK2_Y427_T426P_YF]: 0.543
20. NNRVFYGNSDC [RS1_Y177_R182C]: 0.811
21. QTEGEYSSLEH [IDH3B_Y171]: 0.634
22. AALVQYFMEHH [PTPN11_Y80_E76A_YF]: 1.42
23. AESPEHVHMFT [FAM111A_Y511_Y511H_YF]: 0.54
24. FASTGYVIAIQ [GRIN2B_Y762_G763V]: 1.07
25. VNKIFHPDFIV [LIG3_Y768_Y768H_YF]: 0.744
26. NFATLHLKIFH [PDE6B_Y219_Y219H_YF]: 1.26
27. QRKPSYNQLPS [BRCA2_Y71_A75P]: 0.648
28. LKKLEYLNLAL [LRRC6_Y70]: 1.49
29. IVEYAYNDKAV [PUM3_Y259_I264V]: 0.881
30. RGFDTYFGYLL [ARSB_Y165]: 1.42
31. VFPIDYYFPPQ [AR_Y552_L548F]: 1.08
32. LLREWYLPDPY [SIX3_Y225_Q227P]: 1.09
33. INMKEYCKKDF [NTN1_Y490_K489E_YF]: 0.65
34. ENFDDYMKDVG [FABP4_Y20_E23D]: 0.729
35. SMAKFYASGIA [ACADSB_Y373_E376G_YF]: 1
36. RAYRHYLLKQK [SCN2A_Y1919_R1918H]: 0.51
37. ANVKWYRSGRE: 0.46
38. VSSSDYFSFVL [USP24_Y2138_Y2134S]: 0.679
39. LEIETYRRLRD [KRT12_Y429_L433R]: 0.725
40. HKNNNYEPNLF [BRCA2_Y57]: 0.502
41. SVIKEYQIRQV [USH2A_Y3623_G3618S]: 0.653
42. VKMLEYLGKDV [CASP5_Y74]: 0.77
43. RVLQLYGCSPS [ASTL_Y279_K277Q]: 0.727

----------
Measured SH2 binding enrichment by item
testTarget: Grb2 SH2 (UniProt P62993)
Sequence (P62993 whole entry, looked up): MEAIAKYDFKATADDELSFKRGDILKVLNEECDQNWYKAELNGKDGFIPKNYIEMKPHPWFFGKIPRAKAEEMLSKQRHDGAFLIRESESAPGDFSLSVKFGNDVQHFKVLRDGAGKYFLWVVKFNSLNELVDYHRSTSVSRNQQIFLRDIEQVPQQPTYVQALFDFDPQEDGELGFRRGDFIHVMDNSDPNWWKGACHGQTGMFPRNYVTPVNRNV
procedureText: SH2 binding enrichment of the phosphorylated peptide, bacterial display (enrichment ratio); higher = better substrate or ligand; peptides without Tyr show the background
quantityMeasured: SH2 binding enrichment

1. YEDALYTVLHR [UNC13D_Y61]: 0.86
2. QSKGIYYVQLE [MGAT4B_Y262]: 0.724
3. LKGQVYILVRE [ASS1_Y359_G362V]: 0.878
4. RMLRKYQELMS [KRT74_Y425_E424K]: 0.712
5. GREYIYVDPMQ [PDGFRA_Y574_H570R]: 0.95
6. DPEATYTTSGG [EPHA2_Y772]: 0.671
7. ATAKGYEPDAS [OTC_Y223_P220A]: 0.836
8. YPPDGYSRHCE [CTNND1_Y213_Y217C]: 0.9
9. CTTIHYTYMCN [TP53_Y234_N235T]: 1.52
10. LREKVYASLEA [RXRA_Y397]: 0.665
11. LNERHYGGLTD [PGAM2_Y92_G97D]: 0.98
12. TDLAFYLVCKG [ASL_Y376_R379C_YF]: 0.732
13. IKGIRYLHHRG [GUCY2D_Y656]: 1.39
14. CNNFICGGCRG [SPINT2_Y163_Y163C]: 0.968

----------
testTarget: Jak2 (UniProt O60674)
Sequence (O60674 whole entry, looked up): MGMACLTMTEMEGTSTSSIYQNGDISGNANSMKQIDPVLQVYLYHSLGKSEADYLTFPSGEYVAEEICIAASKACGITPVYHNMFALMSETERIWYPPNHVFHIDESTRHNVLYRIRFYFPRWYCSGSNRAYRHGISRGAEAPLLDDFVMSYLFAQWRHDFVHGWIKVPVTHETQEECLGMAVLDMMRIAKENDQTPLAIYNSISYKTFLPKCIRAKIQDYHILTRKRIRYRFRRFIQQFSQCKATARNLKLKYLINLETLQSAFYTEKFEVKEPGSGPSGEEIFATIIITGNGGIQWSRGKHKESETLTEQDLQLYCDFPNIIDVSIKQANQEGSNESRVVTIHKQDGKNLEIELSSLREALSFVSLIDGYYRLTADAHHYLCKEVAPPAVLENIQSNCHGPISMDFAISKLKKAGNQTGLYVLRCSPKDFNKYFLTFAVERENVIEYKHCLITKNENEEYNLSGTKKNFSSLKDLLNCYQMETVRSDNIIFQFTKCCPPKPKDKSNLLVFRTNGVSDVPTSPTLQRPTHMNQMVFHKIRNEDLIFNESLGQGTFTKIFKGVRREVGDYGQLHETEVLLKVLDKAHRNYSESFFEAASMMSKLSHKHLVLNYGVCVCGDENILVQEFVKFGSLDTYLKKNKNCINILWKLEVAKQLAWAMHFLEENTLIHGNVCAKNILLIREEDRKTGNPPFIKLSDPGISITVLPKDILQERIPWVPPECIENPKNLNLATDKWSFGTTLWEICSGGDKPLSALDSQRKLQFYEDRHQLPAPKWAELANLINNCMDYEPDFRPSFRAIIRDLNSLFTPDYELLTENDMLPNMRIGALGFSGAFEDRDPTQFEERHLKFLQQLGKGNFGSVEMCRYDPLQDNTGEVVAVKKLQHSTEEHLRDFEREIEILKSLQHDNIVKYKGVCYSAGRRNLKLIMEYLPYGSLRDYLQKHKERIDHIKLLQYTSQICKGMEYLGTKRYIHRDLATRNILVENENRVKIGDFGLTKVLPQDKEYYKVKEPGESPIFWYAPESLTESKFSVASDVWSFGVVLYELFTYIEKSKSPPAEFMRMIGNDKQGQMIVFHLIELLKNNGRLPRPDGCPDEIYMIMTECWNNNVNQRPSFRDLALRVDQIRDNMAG
procedureText: phosphorylation enrichment, bacterial display (enrichment ratio); higher = better substrate or ligand; peptides without Tyr show the background
Measured phosphorylation enrichment by item
quantityMeasured: phosphorylation enrichment

1) NPETCYQKLKK [TK2_Y190_R192K]: 0.921
2) HFPFQCHRQLF [F12_Y53_Y53C_YF]: 1.1
3) LITTPYIGFLG [KCNQ1_Y267_L266P]: 0.983
4) ASPKSYPSQKH [CAP2_Y316_T311A]: 0.464
5) PRDSGYSYETI [MAP1B_Y1921_S1917R]: 0.781
6) HNVAIYEGFAL [ACTC1_Y168_P166A_YF]: 0.972
7) PSELYYSKIGP [SMG1_Y2254]: 4.02
8) PINEPYGDDLD [JUP_Y693_M697L]: 1.16
9) HGDSAYHSQRH [ERBB3_Y1132_R1127H]: 1.03
10) KGNMYYENSYA [EGFR_Y113_R108K]: 0.481
11) FGYPGYQSKHY [TIMP3_Y177]: 0.607
12) DVVKDCAFVHM [RBM14_Y114_Y114C]: 0.71
13) FASTGYVIAIQ [GRIN2B_Y762_G763V]: 0.941
14) FDDIACIRKTL [PIK3CA_Y1021_Y1021C]: 0.787
15) EIIPFYGMSSY [FNDC3B_Y175_T179S]: 0.748
16) VRSVDYVLFRS [FAM189B_Y361]: 0.583
17) WPLKWYVPECI [ZAP70_Y506_A507V]: 1.02
18) IGNGYYFRVFS [MYBPC3_Y1136]: 1.44
19) IVEYAYNDKAV [PUM3_Y259_I264V]: 1
20) GYEEAYSVFKK [PAFAH1B1_Y28]: 0.754
21) RRAKGYPIDLF [ITGB2_Y125_YF]: 1.64
22) NVTRKYSRQIL [MAP3K2_Y463_T464S]: 0.417
23) NNPAFYVLEGV [INPPL1_Y987_YF]: 0.87
24) RRVLVYVGRGA [QDPR_Y16_G17V]: 1.03
25) TEYSQYMRRKN [MAX_Y73_I71S]: 0.507
26) PELINYHQHNS [BTK_Y361]: 1
27) FADIAYNFRQG [PAH_Y166_H170Q_YF]: 0.701
28) SIIKDSFHRGA [GATM_Y203_Y203S]: 0.404
29) TLMNAYSSRCH [KIF11_Y231_S235C]: 0.776
30) TLAHKYHGGGG [HBB_Y146_A141T]: 1.1
31) NVGGKYSYLKV [GRM3_Y478]: 0.635
32) LLRLAYLADIF [ZBED5_Y476]: 0.99
33) AFEQQYSPIPK [NOX1_Y373_R378K]: 0.534
34) SGGCSYGSGGG [KRT1_Y539_G537C]: 0.773
35) LFDPDYMKVIL [CYP4A22_Y104_YF]: 1.23
36) YGGLRYGYGVL [KRTAP20-2_Y13]: 0.658
37) AVPSLYASGRT [ACTA1_Y145_L142P]: 0.523
38) NYYDTCIKTCL [IQGAP2_Y1445_Y1445C]: 1.17
39) VKPENYWRLDI [VHL_Y175_R176W]: 1.39
40) PKEQKYSFLQD [GH1_Y68_N73D]: 0.809
41) TRDTDYQMTKR [ADA_Y308_L304R]: 0.525
42) SVVVPYEPPGV [TP53_Y220_E224G]: 0.55
43) QHNPEYVQQAT [LRRC7_Y1058_S1063T]: 0.985
44) LEIETYRRLRD [KRT12_Y429_L433R]: 1.23
45) KGSEGYLAAIY [NF1_Y2503_T2507I]: 0.673
46) LYVDVYGPSVP [NUBPL_Y109_D105Y]: 0.977
47) VECRVYAEDPF [PCCA_Y401_YF]: 1.6
48) GEPLSHTRFSL [TFRC_Y20_Y20H]: 0.742
49) HEEDNYIEMIP [NWD2_Y566_L569M]: 2.39
